Tested on: SF-539 CNS
Assay: NCI-60 one-dose screen, 48 h (100 = growth as untreated, 0 = no growth, -100 = all killed)
Details: 10 µM unless noted
About 83,000 compounds went through this panel and 20% of them were active in at least one assay; those are over-represented in the sample as a whole.
Each record here notes measured growth.
measuredMetric: growth (%)

{"molecule": "CCOc1cc(/C=N\\Nc2nnc(C)n2N)c(C)cc1N(CCCl)CCCl", "unitOfMeasurement": "%", "observedMeasurement": 34.5}
{"molecule": "COc1cc2c(cc1OC)CN(C)C(C)C2 (configuration not stated)", "unitOfMeasurement": "%", "observedMeasurement": 105}
{"molecule": "COC(=O)C(=[N+]=[N-])C(=O)OC", "unitOfMeasurement": "%", "observedMeasurement": 103}
{"molecule": "CO[C@@H](c1ccccc1Cl)[C@H](C)OC(N)=O", "unitOfMeasurement": "%", "observedMeasurement": 96.6}
{"molecule": "CSc1ccccc1NP1(=O)OCC(C)([N+](=O)[O-])CO1 (configuration not stated)", "unitOfMeasurement": "%", "observedMeasurement": 91.4}
{"molecule": "Cc1ccccc1O", "unitOfMeasurement": "%", "observedMeasurement": 104}
{"molecule": "CC(=O)O[C@@H]1C2=C(C)C3(CC3)[C@@](C)(O)C(=O)C2=C[C@@]1(C)CO", "unitOfMeasurement": "%", "observedMeasurement": -33.1}

###

Tested on: HL-60(TB) leukemia
Test: NCI-60 one-dose screen, 48 h
Conditions: 10 µM unless noted
Experimental: Growth inhibition of the HL-60(TB) human tumor cell line is measured as a screen for anti-cancer activity. Cells are grown in 96 well plates and exposed to the test compound for 48 hours. Compounds are tested at a single concentration, which is 10^-5 M for most compounds. The reported endpoint is percent growth (GI% or GIPRCNT), where numbers from 0 - 100% represent growth inhibition, and numbers from -100% - 0 represent cell death. For example, a value of 40 represents 60% growth inhibition. […]
About 83,000 compounds went through this panel and 20% of them were active in at least one assay; those are over-represented in the sample as a whole. The source made the active and inactive calls. The calls were made as follows: active = growth percent below 10; inactive = the rest.
Classes used: TRUE for active, FALSE for inactive

{"molecule": "COc1cccc(-c2nc3sccn3c2-c2ccnc(NCCCNS(=O)(=O)c3cccc(F)c3)c2)c1", "testedOn": "HL-60(TB) leukemia", "assignedClass": "TRUE"}
{"molecule": "Cc1cc2c(C(C)C)c(O)c(O)c(C=NCCCCC(=O)O)c2c(O)c1-c1c(C)cc2c(C(C)C)c(O)c(O)c(C=NCCCCC(=O)O)c2c1O", "testedOn": "HL-60(TB) leukemia", "assignedClass": "FALSE"}
{"molecule": "N#CCCN=Nc1c(O)[nH]c2ccc([N+](=O)[O-])cc12", "testedOn": "HL-60(TB) leukemia", "assignedClass": "FALSE"}
{"molecule": "O=C(Cc1ccc(/C=C/C(=O)c2ncc[nH]2)cc1)Nc1ccc(Br)cc1", "testedOn": "HL-60(TB) leukemia", "assignedClass": "TRUE"}
{"molecule": "NC(=S)N/N=C/c1ccc(OC(=O)COc2cc(Cl)c(Cl)cc2Cl)cn1", "testedOn": "HL-60(TB) leukemia", "assignedClass": "FALSE"}
{"molecule": "Cc1nc(-c2ccccc2)sc1CC#N", "testedOn": "HL-60(TB) leukemia", "assignedClass": "FALSE"}
{"molecule": "C=COCCCCCCCCCCCCCCCCCC", "testedOn": "HL-60(TB) leukemia", "assignedClass": "FALSE"}
{"molecule": "CC(=O)NC(CCC(=O)c1ccccc1)C(=O)O (centres undefined)", "testedOn": "HL-60(TB) leukemia", "assignedClass": "FALSE"}
{"molecule": "CC(C)n1c2ccc(Br)cc2c2c3c(c4c5ccccc5ccc4c21)C(=O)NC3=O", "testedOn": "HL-60(TB) leukemia", "assignedClass": "FALSE"}
{"molecule": "CC(C)(C)c1ccc(C(O)CCCN2CCC(C(O)(c3ccccc3)c3ccccc3)CC2)cc1 (centres undefined)", "testedOn": "HL-60(TB) leukemia", "assignedClass": "TRUE"}
{"molecule": "CCN(CC)CCOC(COc1cc(C)cc(C)c1)COc1cc(C)cc(C)c1", "testedOn": "HL-60(TB) leukemia", "assignedClass": "FALSE"}
{"molecule": "Oc1ccc(Cl)cc1C(c1cc(Cl)ccc1O)C(Cl)(Cl)Cl", "testedOn": "HL-60(TB) leukemia", "assignedClass": "FALSE"}
{"molecule": "NC(=O)c1cc(Br)ccc1NC(=O)/C=C/c1ccccc1", "testedOn": "HL-60(TB) leukemia", "assignedClass": "TRUE"}
{"molecule": "O=C(Nc1nc(-c2ccccc2)cs1)c1cc(O)c(O)c(O)c1", "testedOn": "HL-60(TB) leukemia", "assignedClass": "FALSE"}
{"molecule": "NC(=S)N/N=C/c1ccc(Cl)s1", "testedOn": "HL-60(TB) leukemia", "assignedClass": "FALSE"}
{"molecule": "Oc1c(I)cc(I)cc1CNCc1ccccn1", "testedOn": "HL-60(TB) leukemia", "assignedClass": "FALSE"}
{"molecule": "C/C=C(/C)C(=O)O[C@@H]1CC(C)(C)CC2C34OC(=O)[C@@]21CC[C@@]3(C)[C@]1(C)CCC2C(C)(C)C(=O)CC[C@]2(C)C1C[C@@H]4Cl (some centres undefined)", "testedOn": "HL-60(TB) leukemia", "assignedClass": "FALSE"}
{"molecule": "CC1C(c2ccccc2)OCCN1C(=S)Nc1ccc(S(=O)(=O)N2CCCCC2)cc1 (centres undefined)", "testedOn": "HL-60(TB) leukemia", "assignedClass": "FALSE"}
{"molecule": "N[C@@H](CCCCNCC(=O)O)C(=O)O", "testedOn": "HL-60(TB) leukemia", "assignedClass": "FALSE"}
{"molecule": "CC(C)C(=O)Nc1ccc(-c2nc(-c3cccc(OCCN4CCOCC4)c3)c(-c3ccnc(Br)c3)[nH]2)cc1", "testedOn": "HL-60(TB) leukemia", "assignedClass": "TRUE"}
{"molecule": "Cl/C(=N\\Nc1ccccc1)c1ccccc1", "testedOn": "HL-60(TB) leukemia", "assignedClass": "FALSE"}
{"molecule": "CCOC(=O)C/C(C)=N\\NC(=O)c1ccncc1", "testedOn": "HL-60(TB) leukemia", "assignedClass": "FALSE"}
{"molecule": "CNS(=O)(=O)c1cccc(-c2ccc3c4c(n(C)c(=O)c3c2)-c2ccccc2C4=O)c1", "testedOn": "HL-60(TB) leukemia", "assignedClass": "TRUE"}
{"molecule": "COc1ccc2nc(NC(=O)c3cc(-c4ccc(F)cc4)n4nc(-c5ccccc5)cc4n3)sc2c1", "testedOn": "HL-60(TB) leukemia", "assignedClass": "FALSE"}
{"molecule": "Cc1nc(NN)c([N+](=O)[O-])c(NN)n1", "testedOn": "HL-60(TB) leukemia", "assignedClass": "FALSE"}
{"molecule": "O=C(Nc1cccc(-n2cc(-c3ccncc3)c(-c3ccc(Cl)c(O)c3)n2)c1)c1ccccc1", "testedOn": "HL-60(TB) leukemia", "assignedClass": "FALSE"}
{"molecule": "O=c1c2ccccc2n2cnc3ccc(Cl)c1c32", "testedOn": "HL-60(TB) leukemia", "assignedClass": "FALSE"}
{"molecule": "CC(=O)c1ccc(Nc2nc(NCCO)nc(Nc3ccc(Cl)cc3)n2)cc1", "testedOn": "HL-60(TB) leukemia", "assignedClass": "FALSE"}
{"molecule": "COc1ccccc1OCC(=O)Nc1sc2c(c1C(N)=O)CCC2", "testedOn": "HL-60(TB) leukemia", "assignedClass": "FALSE"}
